Each record here notes measured percentage damage caused to the plant, PRE Application IPOHE.
Test system: Ipomoea hederacea (IPOHE)
Run description: Pre-emergence herbicidal glasshouse test, IPOHE
Format: in vivo
Setup conditions: 125 g/h, evaluated after 13 days, five-point scale

Some entries whose results are on file:
# Compound, Value reported
data = [
    ("COCCCOC(=O)Nc1c(OC(F)(F)F)ccc(C(=O)Nc2nnnn2C)c1Cl [Compound 1.019]", "4 (4=60-79%)"),
    ("Cn1nnnc1NC(=O)c1ccc(OC(F)F)c(NC(=O)OCCS(C)(=O)=O)c1Cl [Compound 1.028]", "2 (2=20-39%)"),
]

Find the measured percentage damage caused to the plant, PRE Application IPOHE of Cn1nnnc1NC(=O)c1ccc(OC(F)F)c(N2CCOC2=O)c1Cl [Compound 1.037] and report it.
5 (5=80-100%)

Give the value of percentage damage caused to the plant, PRE Application IPOHE reported for the following: CCOC(=O)N(C)c1c(OC(F)F)ccc(C(=O)Nc2nnnn2C)c1Cl [Compound 1.041]
4 (4=60-79%)

# return recorded percentage damage caused to the plant, PRE Application IPOHE for input Cn1nnnc1NC(=O)c1ccc(OC(F)(F)F)c(NC(=O)OCCS(C)(=O)=O)c1Cl [Compound 1.013]
2 (2=20-39%)

Could you please provide reported percentage damage caused to the plant, PRE Application IPOHE for CC(C)OC(=O)Nc1c(OC(F)(F)F)ccc(C(=O)Nc2nnnn2C)c1Cl [Compound 1.007] ? Thanks!
4 (4=60-79%)

Report percentage damage caused to the plant, PRE Application IPOHE, nothing else, for this compound: COC(=O)N(C)c1c(OC(F)(F)F)ccc(C(=O)Nc2nnnn2C)c1Cl [Compound 1.029]
5 (5=80-100%)

Report measured percentage damage caused to the plant, PRE Application IPOHE; entry is COC(=O)Nc1c(OC(F)(F)F)ccc(C(=O)Nc2nnnn2C)c1C [Compound 1.035]
3 (3=40-59%)

Fill in percentage damage caused to the plant, PRE Application IPOHE for record CCCOC(=O)Nc1c(OC(F)F)ccc(C(=O)Nc2nnnn2C)c1Cl [Compound 1.016]
2 (2=20-39%)

Provide percentage damage caused to the plant, PRE Application IPOHE value for the following compound: CCOC(=O)N(CC)c1c(OC(F)(F)F)ccc(C(=O)Nc2nnnn2C)c1Cl [Compound 1.031]
5 (5=80-100%)

Report measured percentage damage caused to the plant, PRE Application IPOHE; entry is Cn1nnnc1NC(=O)c1ccc(OC(F)(F)F)c(NC(=O)OC2CCOCC2)c1Cl [Compound 1.020]
5 (5=80-100%)

Data provenance is patent US12637437B2.
